- Test system: HAP1 MTAP-deleted cell line
- method.description: Viability assay, MTAP-deleted cell line
- Type: cell-based
- protocol.conditions: Homo sapiens, HAP1, viability assay, MTAP-deleted cell line; read-out: HAP1 MTAP deleted viability
Reported IC50 values are given for each entry in this list.

Task item: Returns the measured IC50 for the input compound. Input: C[C@@H]1CC[C@@H](c2cnc3ccccc3c2)N(C(=O)C(=O)Nc2cncc(C(N)=O)c2)C1 (racemic)
Reply: > 10000 nM

Task item: Returns the measured IC50 for the input compound. Input: CCc1cc(NC(=O)C(=O)N2C[C@@H](C)CC[C@@H]2c2ccc3nn([C@H]4CCN(C)C4)cc3c2)cnc1N (racemic)
Reply: < 1000 nM

Task item: Returns the measured IC50 for the input compound. Input: CCc1cc(NC(=O)C(=O)N2C[C@@H](C)CC[C@@H]2c2ccc3sc(CCN(C)C)nc3c2)cnc1N (single isomer, unassigned)
Reply: < 1000 nM

###

- Tested on: HAP1 MTAP-deleted cell line
- method.description: SDMA in-cell western assay, HAP1 MTAP-deleted
- Type: cell-based
- protocol.conditions: Homo sapiens, HAP1, SDMA in-cell western, HAP1 MTAP-deleted; read-out: HAP1 MTAP deleted IC50
metric.name: IC50

The following molecules have reported results that may help.
molecule	test.system	IC50
Cc1cc(NC(=O)C(=O)N2C[C@@H](C)CC[C@@H]2c2ccc3sc([C@H]4CCN(C)C(C)(C)C4)nc3c2)cnc1C (single isomer, unassigned) [Compound 1135]	HAP1 MTAP-deleted cell line	< 100 nM
C[C@@H]1CC[C@@H](c2ccc3c(c2)CCC3)N(C(=O)C(=O)Nc2cncc(C(N)=O)c2)C1 (racemic) [Compound 277]	HAP1 MTAP-deleted cell line	100 to 1000 nM
Cc1ccc([C@@H]2CC[C@@H](C)CN2C(=O)C(=O)Nc2cncc(C(N)=O)c2)cc1C (racemic) [Compound 180]	HAP1 MTAP-deleted cell line	100 to 1000 nM
CNC(=O)c1ccc([C@H]2CC[C@H](C)CN2C(=O)C(=O)Nc2cncc(C(N)=O)c2)s1 (single isomer, unassigned) [Compound 839]	HAP1 MTAP-deleted cell line	> 1000 nM
CCc1cc(NC(=O)C(=O)N2C[C@H](C)CC[C@H]2c2ccc(NC)nc2)cnc1N (single isomer, unassigned) [Compound 865]	HAP1 MTAP-deleted cell line	< 100 nM
CCc1cc(NC(=O)C(=O)N2C[C@@H](C)CC[C@@H]2c2ccc3sc(CCN(C)C4COC4)nc3c2)cnc1N [Compound 1195]	HAP1 MTAP-deleted cell line	< 100 nM
Cc1ncc(NC(=O)C(=O)N2C[C@H](C)CC[C@H]2c2ccc3c(c2)CCC(=O)N3)cc1C(F)F (single isomer, unassigned) [Compound 874]	HAP1 MTAP-deleted cell line	< 100 nM
COc1ncc(NC(=O)C(=O)N2C[C@H](C)CC[C@H]2c2cncs2)cc1C(N)=O (single isomer, unassigned) [Compound 514]	HAP1 MTAP-deleted cell line	> 1000 nM

--- query ---
Task item: Returns the measured IC50 for the input molecule. Input: Cc1cc(NC(=O)C(=O)N2C[C@H](C)CC[C@H]2c2ccc3[nH]c(=O)ccc3c2)cnc1N (single isomer, unassigned) [Compound 763]
Reply: > 1000 nM

###

- test.system: PRMT5 (Homo sapiens)
- Construct: purchased Viva (custom protein)
- method.description: PRMT5 biochemical IC50 assay with no cofactor
- protocol.conditions: PRMT5, no cofactor; read-out: No Cofactor/ rel IC50
metric.name: IC50

Task item: Returns the measured IC50 for the input compound. Input: CCc1cc(NC(=O)C(=O)N2C[C@@H](C)CC[C@@H]2c2ccc(N3CCN(CC)CC3)cc2)cnc1N (single isomer, unassigned) [Compound 1360]
Reply: > 0.5 µM

Task item: Returns the measured IC50 for the input compound. Input: CCc1cc(NC(=O)C(=O)N2C[C@@H](C)CC[C@@H]2c2cccc([C@H]3CCN(C)C3)c2)cnc1N [Compound 1342]
Reply: < 0.05 µM

Task item: Returns the measured IC50 for the input compound. Input: Cc1cc(NC(=O)C(=O)N2CCCCC2c2cccc3c2CC(=O)N3)cnc1N (stereo not shown) [Compound 116]
Reply: > 0.5 µM

Task item: Returns the measured IC50 for the input compound. Input: CCc1cc(NC(=O)C(=O)N2C[C@@H](C)CC[C@@H]2c2ccc(CCN(C)C)c(Cl)c2)cnc1N [Compound 1402]
Reply: < 0.05 µM

Task item: Returns the measured IC50 for the input compound. Input: Cc1cc(NC(=O)C(=O)N2C[C@@H]3CC[C@@H](C3)[C@H]2c2ccccc2)cnc1N (single isomer, unassigned) [Compound 64]
Reply: 0.05 to 0.5 µM

Task item: Returns the measured IC50 for the input compound. Input: C[C@H]1CC[C@H](c2ccc3sc(CCN(C)C)nc3c2)N(C(=O)C(=O)Nc2cnc(N)c(C3CC3)c2)C1 (single isomer, unassigned) [Compound 1331]
Reply: > 0.5 µM

Task item: Returns the measured IC50 for the input compound. Input: CC(=O)N1CCC(c2cccc(C3CCCCN3C(=O)C(=O)Nc3cncc(C)c3)c2)CC1 (stereo not shown) [Compound 7]
Reply: > 0.5 µM

Task item: Returns the measured IC50 for the input compound. Input: Cc1cncc(NC(=O)C(=O)N2CCCCC2c2cccc(N(C)C)c2)c1 (stereo not shown) [Compound 15]
Reply: > 0.5 µM

Task item: Returns the measured IC50 for the input compound. Input: CCc1cc(NC(=O)C(=O)N2C[C@@H](C)CC[C@@H]2c2ccc3sc(C4CC5(C4)CN(C)C5)nc3c2)cnc1N [Compound 1283]
Reply: < 0.05 µM

###

- test.system: PRMT5 (Homo sapiens, UniProt O14744)
- Construct: purchased Viva (custom protein)
- Sequence (O14744 whole entry): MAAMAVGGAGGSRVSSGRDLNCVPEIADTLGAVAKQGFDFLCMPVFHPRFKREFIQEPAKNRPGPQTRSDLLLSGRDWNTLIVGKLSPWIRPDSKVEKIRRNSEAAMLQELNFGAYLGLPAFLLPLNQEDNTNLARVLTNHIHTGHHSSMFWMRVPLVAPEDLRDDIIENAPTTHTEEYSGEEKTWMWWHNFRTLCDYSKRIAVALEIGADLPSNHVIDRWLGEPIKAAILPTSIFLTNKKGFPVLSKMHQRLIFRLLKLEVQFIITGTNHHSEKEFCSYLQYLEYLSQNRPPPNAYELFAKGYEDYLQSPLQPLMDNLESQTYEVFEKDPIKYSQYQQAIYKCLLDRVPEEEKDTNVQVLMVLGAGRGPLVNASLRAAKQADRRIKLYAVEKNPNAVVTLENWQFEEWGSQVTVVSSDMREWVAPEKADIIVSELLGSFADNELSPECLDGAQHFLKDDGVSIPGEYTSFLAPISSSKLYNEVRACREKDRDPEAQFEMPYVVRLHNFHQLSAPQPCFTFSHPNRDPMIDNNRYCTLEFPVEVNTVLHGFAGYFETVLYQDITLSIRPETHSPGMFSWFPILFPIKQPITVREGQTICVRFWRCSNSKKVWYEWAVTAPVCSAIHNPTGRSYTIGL
- Sequence (Q9BQA1 whole entry partner): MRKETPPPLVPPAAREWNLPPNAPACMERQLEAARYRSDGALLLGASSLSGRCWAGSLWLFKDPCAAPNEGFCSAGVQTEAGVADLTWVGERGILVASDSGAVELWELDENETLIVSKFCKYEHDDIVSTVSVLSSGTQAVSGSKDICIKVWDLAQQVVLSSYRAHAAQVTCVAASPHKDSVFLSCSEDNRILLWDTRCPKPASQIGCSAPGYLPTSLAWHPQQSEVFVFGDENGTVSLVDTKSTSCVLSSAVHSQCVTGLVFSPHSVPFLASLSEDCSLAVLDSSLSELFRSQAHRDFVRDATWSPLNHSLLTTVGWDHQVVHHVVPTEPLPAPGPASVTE
- method.description: PRMT5 biochemical IC50 assay with MTA as cofactor
- protocol.conditions: PRMT5, MTA as cofactor; read-out: MTA IC50
metric.name: IC50

The following compounds have reported results that may help.
compound	IC50
Cc1cc(NC(=O)C(=O)N2C[C@@H](C)CC[C@@H]2c2cccs2)cnc1N (single isomer, unassigned)	> 500 nM
Cc1nc2cc([C@@H]3CC[C@H](C)CN3C(=O)C(=O)Nc3cnc(N)c(C)c3)ccc2o1 (single isomer, unassigned)	< 50 nM
Cc1cc(NC(=O)C(=O)N2C[C@H](C)CC[C@H]2[C@H]2CCC[C@H](O)C2)cnc1N (single isomer, unassigned)	< 50 nM

Task item: Returns the measured IC50 for the input compound. Input: Cc1cc(NC(=O)C(=O)N2C[C@@H](C)CC[C@@H]2c2ccc3nn(C)cc3c2)cnc1N (single isomer, unassigned)
Reply: > 500 nM

Task item: Returns the measured IC50 for the input compound. Input: C[C@@H]1CC[C@@H](c2ccc3[nH]c(=O)[nH]c3c2)N(C(=O)C(=O)Nc2cncc(C(N)=O)c2)C1 (racemic)
Reply: 50 to 500 nM

Task item: Returns the measured IC50 for the input compound. Input: Cc1cc(NC(=O)C(=O)N2CCCCC2c2cccs2)cnc1N (stereo not shown)
Reply: < 50 nM

Task item: Returns the measured IC50 for the input compound. Input: `Cc1cc(NC(=O)C(=O)N2C[C@@H](C)CC[C@@H]2c2ccc3sc(C4COC4)nc3c2)cnc1N`
Reply: < 50 nM

Task item: Returns the measured IC50 for the input compound. Input: Cc1ncc(NC(=O)C(=O)N2C[C@H](C)CC[C@H]2c2ccc3c(c2)CCC(=O)N3)cc1Cl (single isomer, unassigned) [Compound 726]
Reply: < 50 nM

Task item: Returns the measured IC50 for the input compound. Input: COc1ncc(NC(=O)C(=O)N2C[C@H](C)CC[C@H]2c2ccc3sc(CCN(C)C)nc3c2)cc1C(N)=O (single isomer, unassigned)
Reply: > 500 nM

Task item: Returns the measured IC50 for the input compound. Input: Cc1cc(NC(=O)C(=O)N2C[C@H](C)CC[C@H]2c2ccc(F)c(O)c2)cnc1N (racemic)
Reply: < 50 nM

Task item: Returns the measured IC50 for the input compound. Input: C[C@@H]1CC[C@@H](c2ccc3sc(CCN(C)C)nc3c2)N(C(=O)C(=O)Nc2cncc(C(N)=O)c2)C1 (racemic) [Compound 1355]
Reply: < 50 nM

Task item: Returns the measured IC50 for the input compound. Input: CCc1cc(NC(=O)C(=O)N2C[C@H](C)[C@H](OC)C[C@H]2c2ccc(N3CCN(C)CC3)cc2)cnc1N (single isomer, unassigned)
Reply: < 50 nM

Task item: Returns the measured IC50 for the input compound. Input: C[C@H]1CC[C@H](c2ccc(N)cc2)N(C(=O)C(=O)Nc2cncc(C(N)=O)c2)C1 (single isomer, unassigned)
Reply: > 500 nM

###

- test.system: PRMT5 (Homo sapiens, UniProt O14744)
- Construct: purchased Viva (custom protein)
- method.description: PRMT5 biochemical IC50 assay with no cofactor
- protocol.conditions: PRMT5, no cofactor; read-out: No Cofactor/ rel IC50
pIC50: −log10 of the molar value.
Reported pIC50 values are given for each entry in this list.

molecule	metric.name	recorded.measurement
Cc1cc(NC(=O)C(=O)N2C[C@H](C)CC[C@H]2C2CCC(C(C)(C)C)CC2)cnc1N (mixture of isomers)	pIC50	6.30 to 7.30

Task item: Returns the measured pIC50 for the input molecule. Input: Cc1cncc(NC(=O)C(=O)N2C[C@@H](C)CC[C@@H]2c2cccc(Cl)c2)c1 (single isomer, unassigned)
Reply: 6.30 to 7.30

Task item: Returns the measured pIC50 for the input molecule. Input: C[C@H]1CC[C@@H](C2CCCCC2)N(C(=O)C(=O)Nc2cncc(C(N)=O)c2)C1 (single isomer, unassigned)
Reply: 6.30 to 7.30

Task item: Returns the measured pIC50 for the input molecule. Input: C[C@@H]1CC[C@@H](c2ccc3c(cnn3CCN(C)C)c2)N(C(=O)C(=O)Nc2cnc(N)c(C3CC3)c2)C1 (single isomer, unassigned)
Reply: > 7.30

Task item: Returns the measured pIC50 for the input molecule. Input: Cc1cc(NC(=O)C(=O)N2CC(C)(C)CCC2c2ccccc2)cnc1N (single isomer, unassigned) [Compound 58]
Reply: < 6.30

Task item: Returns the measured pIC50 for the input molecule. Input: Cc1cc([C@@H]2CC[C@@H](C)CN2C(=O)C(=O)Nc2cncc(C(N)=O)c2)ccc1Cl (racemic)
Reply: 6.30 to 7.30
